Value source: patent US20130040933A1

target: rhJAK3 (Homo sapiens, UniProt P52333); construct: recombinant purified GST-tagged catalytic domain for each enzyme; purchased Invitrogen PV3855; assay: JAK Biochemical HTRF Assay (JAK3); details: recombinant purified GST-tagged catalytic domain, HTRF format, [ATP] 1.7 μM; read-out: rhJAK3 IC50
Sequence (P52333 822-1111 limits assumed): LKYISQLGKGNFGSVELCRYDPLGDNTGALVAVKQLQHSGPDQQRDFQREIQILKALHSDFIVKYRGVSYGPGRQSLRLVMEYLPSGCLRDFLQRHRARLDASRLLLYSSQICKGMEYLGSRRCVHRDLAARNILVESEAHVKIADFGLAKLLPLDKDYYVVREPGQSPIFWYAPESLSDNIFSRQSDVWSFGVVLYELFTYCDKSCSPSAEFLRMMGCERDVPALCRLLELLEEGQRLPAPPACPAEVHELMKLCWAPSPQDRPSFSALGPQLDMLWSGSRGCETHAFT
Can you tell me IC50 for the items I'm about to list?

Look over these answered cases.
Smiles Record: O=C(NCC(F)(F)F)c1cncc(-c2c[nH]c3ncc(Cl)cc23)n1
IC50: 100 to 1000 nM
//
Smiles Record: C[C@@H](Nc1cncc(-c2c[nH]c3ncc(Cl)cc23)n1)C(=O)NCC(=O)N(C)C
IC50: 100 to 1000 nM
//
Smiles Record: CC(C)CNC(=O)[C@H](C)Nc1cncc(-c2c[nH]c3ncc(Cl)cc23)n1
IC50: 10 to 100 nM
//
Smiles Record: C[C@@H](Nc1cncc(-c2c[nH]c3ncc(Cl)cc23)n1)C(=O)NCCC1CC1
IC50: 10 to 100 nM
//
Smiles Record: C[C@@H](Nc1cncc(-c2c[nH]c3ncc(-c4cnn(C)c4)cc23)n1)C(=O)NCC(F)(F)F
IC50: ≤ 1 nM
//
Smiles Record: O=C(NCC(F)(F)F)[C@@H]1CCCN1c1cncc(-c2c[nH]c3ncc(Cl)cc23)n1
IC50: 1 to 10 nM
//
Smiles Record: CC(C)(C)C(=O)N1CCN(c2cncc(-c3c[nH]c4ncc(Cl)cc34)n2)[C@@H](C(=O)NCC(F)(F)F)C1
IC50: 10 to 100 nM

Now turn to the next compound.
Request: Please report the recorded IC50 for `C[C@@H](Nc1cncc(-c2c[nH]c3ncc(Cl)cc23)n1)C(=O)NCCc1cccs1` .
Response: 100 to 1000 nM
